- Measurement target: HLA-B*08:01
- Run description: IEDB peptide-MHC binding, purified MHC/direct/fluorescence; filed as Kd, often an IC50 or EC50 that approximates it; bounds were set here for any values at or beyond the usual limits of such assays
- Test conditions: source organism: Vibrio parahaemolyticus RIMD 2210633
Measurement name: Kd

# input // lookup Kd for DTWHGFKNM
# output ≥ 20 µM

---

- Measurement target: HLA-A*30:01
- Run description: IEDB peptide-MHC binding, purified MHC/competitive/radioactivity; filed as Kd, often an IC50 or EC50 that approximates it; bounds were set here for any values at or beyond the usual limits of such assays
- Test conditions: source organism: Dengue virus 1 Singapore/S275/1990
Measurement name: Kd (nM)
Please reply with the bare figure in nM and do not write the unit itself.

# input // lookup Kd for LARWGSFKK
# output 24.4

---

- Measurement target: HLA-A*69:01
- Run description: IEDB peptide-MHC binding, purified MHC/competitive/fluorescence; filed as Kd, often an IC50 or EC50 that approximates it; bounds were set here for any values at or beyond the usual limits of such assays
- Test conditions: source organism: Burkholderia pseudomallei 668
Measurement name: Kd

# input // lookup Kd | system=HLA-A*69:01 | key= ILFDRLPIA
# output ≥ 20 µM

---

- Measurement target: HLA-A*24:02
- Run description: IEDB peptide-MHC binding, purified MHC/competitive/radioactivity; filed as Kd, often an IC50 or EC50 that approximates it; bounds were set here for any values at or beyond the usual limits of such assays
- Test conditions: source organism: Mammarenavirus machupoense
Measurement name: Kd

# input // lookup Kd for QCGDPSSFDY
# output ≥ 70.3 µM

---

- Measurement target: HLA-A*02:17
- Run description: IEDB peptide-MHC binding, purified MHC/competitive/radioactivity; filed as Kd, often an IC50 or EC50 that approximates it; bounds were set here for any values at or beyond the usual limits of such assays
- Test conditions: source organism: Dengue virus 4 Philippines/H241/1956
Measurement name: Kd (µM)
Please reply with the bare figure in µM and do not write the unit itself.

# input // lookup Kd for IILEFFLMVL
# output 1.4

# input // lookup Kd for FSMGLLCLTL
# output 0.084

---

I'd appreciate it if you could supply Kd values for the items below.
- Measurement target: HLA-A*32:01
- Run description: IEDB peptide-MHC binding, purified MHC/competitive/radioactivity; filed as Kd, often an IC50 or EC50 that approximates it; bounds were set here for any values at or beyond the usual limits of such assays
- Test conditions: source organism: Dengue virus 2 Jamaica/1409/1983
Please reply with the bare figure in nM and do not write the unit itself.

# input // lookup Kd for RSGAYVSAI
# output 378

# input // lookup Kd for ISGVFPVSI
# output 1120

# input // lookup Kd for AGILKRWGTI
# output 8820

# input // lookup Kd for SLGGVFTSI
# output 294

# input // lookup Kd for DTQGSNWIQK
# output 267

# input // lookup Kd for GTGNIGETL
# output 8120

---

- Measurement target: HLA-A*03:01
- Run description: IEDB peptide-MHC binding, purified MHC/direct/fluorescence; filed as Kd, often an IC50 or EC50 that approximates it; bounds were set here for any values at or beyond the usual limits of such assays
- Test conditions: source organism: Burkholderia mallei
Measurement name: Kd

# input // lookup Kd for STYQPLPLY
# output ≥ 20 µM
